Tested on: OVCAR-8 ovarian
Test Name: NCI tumour cell line growth inhibition, 48 h
Recorded Endpoint: TGI

Note TGI for the compound shown: CC(=O)N1C(OCc2ccccc2)CCN1c1ccccc1 (stereo unspecified)
> 10 µM

Note TGI for the compound shown: `COc1ccc(-c2nn(-c3cccc(NC(=O)Nc4cccc(C(F)(F)F)c4)c3)cc2-c2ccncc2)cc1Cl`
10.4 µM

Note TGI for the compound shown: C[C@@]12CCC[C@@](C)(C(=O)O)C1CC[C@@]13CC(=O)[C@@](CO)(CCC12)C3 (stereo partly specified)
> 100 µM

Note TGI for the compound shown: C=C1CO[C@@H]2C[C@@H]1CCC1(C)OC1CC/C(C)=C/CC[C@@]2(C)O (stereo partly specified)
> 100 µM

Note TGI for the compound shown: `CC(C)(CN1CCCCC1)C(=O)/C=C/c1c(Cl)cccc1Cl`
9.21 µM

Note TGI for the compound shown: `COc1cc2c3c(n(C)c(=O)c2cc1OC)-c1cc2c(cc1/C3=C\[C@@H](N)CCCCN)OCO2`
> 45.8 µM

Note TGI for the compound shown: COC(=O)[C@H](Cc1ccccc1)NC(=O)[C@@H](OC)[C@@H]1Cc2cc3cc(OC4CC(OC5CC(O)C(O)C(C)O5)C(O)C(C)O4)c(C)c(O)c3c(O)c2C(=O)[C@H]1OC1CC(OC2CC(OC3CC(C)(O)C(O)C(C)O3)C(O)C(C)O2)C(O)C(C)O1 (stereo partly specified)
> 14.3 µM

Note TGI for the compound shown: `Oc1ccc(SCc2ccc(NCc3ccccc3)cc2)cc1`
> 100 µM

Note TGI for the compound shown: `CCCCC#Cc1cccc(=O)o1`
> 100 µM

Note TGI for the compound shown: `Oc1ccc(-c2nc3ccc4[nH]ncc4c3c3c2CCCC3)c2cccnc12`
10.8 µM

Note TGI for the compound shown: `CCCN(CCC)c1c([N+](=O)[O-])cc(C(=O)N(C)C)cc1[N+](=O)[O-]`
> 100 µM

Note TGI for the compound shown: `O=[N+]([O-])c1cc(Cl)ccc1S(=O)(=O)c1cc(Cl)cc2c1NCCC2`
> 100 µM

Note TGI for the compound shown: COC1=CCC2=C(CCN(C(=O)C3CCC3)C2Cc2ccc(OC)c(O)c2)C1 (stereo unspecified)
> 100 µM

Note TGI for the compound shown: `Cc1nc2ccc(NCCN(C)C)c3c(=O)c4cc(O)ccc4n1c23`
2.37 µM

Note TGI for the compound shown: CC12CCC(O)CC1CCC1C2CCC2(C)C(C3=CC(=O)OC3)CCC12 (stereo unspecified)
> 100 µM

Note TGI for the compound shown: COc1cc(-c2coc3c(OC)c(OC4OC(COC5OC(C)C(O)C(O)C5O)C(O)C(O)C4O)c(OC)c(O)c3c2=O)cc(C)c1O (stereo unspecified)
> 100 µM

Note TGI for the compound shown: `COC(=O)[C@]12CC[C@@H](C)[C@H](C)[C@@H]1C1=CC[C@@H]3[C@@]4(C)C=C(O)C(=O)C(C)=C4CC[C@@]3(C)[C@]1(C)CC2`
39.4 µM

Note TGI for the compound shown: `O=C(/C=C/c1ccc(Cl)cc1)c1ccncc1`
> 100 µM

Note TGI for the compound shown: `N#CC(=S)Nc1ccc(F)cc1`
> 100 µM

Note TGI for the compound shown: NC(CNc1ccc(O)cc1)C(=O)O (stereo unspecified)
> 100 µM

Note TGI for the compound shown: `CCOC(=O)CN(Cc1ccccc1)Cc1c(C(=O)c2ccccc2)c2ccccc2n1C(=O)c1ccccc1`
> 100 µM

Note TGI for the compound shown: CS(=O)(=O)CS(=O)CS(=O)CS(=O)CC(NC(=O)CCC(N)C(=O)O)C(=O)O (stereo unspecified)
> 100 µM

Note TGI for the compound shown: `O=C1C(=O)c2c(nc3ncccn23)-c2ccccc21`
1.27 µM

Note TGI for the compound shown: `Cc1ccc([Se][Se]c2ccc(C)cc2)cc1`
> 100 µM

Note TGI for the compound shown: `Cc1cccc(N2C(=O)C(=O)C(c3nc4ccccc4s3)C(=O)C2=O)c1C`
> 100 µM

Note TGI for the compound shown: `Cc1csc2n(C)c(=O)c3ccccc3[n+]12`
> 100 µM

Note TGI for the compound shown: `CC(C)C[C@H](NC(=O)[C@H](CCc1ccccc1)NC(=O)c1ccc2ccccc2n1)B(O)O`
0.86 µM

Note TGI for the compound shown: `COc1ccc(C(=O)N/N=C/c2ccc(O)cc2O)cc1Nc1ccnc(C(F)(F)F)c1`
> 71.2 µM

Note TGI for the compound shown: CCOC(=O)C12C(=O)CCN1CCc1ccccc1C2C (stereo unspecified)
> 100 µM

Note TGI for the compound shown: `O=C(NNCc1ccccc1O)c1ccccc1O`
> 100 µM

Note TGI for the compound shown: `Clc1ccc(-c2cn(-c3ccccc3)c(-c3ccccc3)n2)c(Cl)c1`
> 31.5 µM

Note TGI for the compound shown: `c1ccc2c(c1)ccc1c3ccccc3ccc21`
> 50 µM

Note TGI for the compound shown: `Cc1nn(-c2ccccc2)c2c1N=C(C(=O)O)CC(c1ccccc1)=N2`
> 10 µM

Note TGI for the compound shown: `CN1CCN(c2cc(Nc3cc(C4CC4)[nH]n3)nc(Nc3ccc(CC(=O)NCc4cccc(F)c4)cc3)n2)CC1`
30.1 µM

Note TGI for the compound shown: `O=C(Nc1cccc(C(F)(F)F)c1)c1cc(-c2ccccc2)nc(=S)[nH]1`
> 100 µM

Note TGI for the compound shown: `COc1ccc(Nc2c[nH]c(=O)[nH]c2=O)cc1`
> 100 µM

Note TGI for the compound shown: c1ccc2nn(C3CCCCO3)nc2c1 (stereo unspecified)
> 100 µM

Note TGI for the compound shown: Cc1nn(C(=O)c2ccc(Cl)cc2)c2c1C(c1ccco1)SC(N)=N2 (stereo unspecified)
> 10 µM

Note TGI for the compound shown: CCCC1C(C#N)(C#N)C(C#N)=C(N)C1(C)C(C)=O (stereo unspecified)
> 100 µM

Note TGI for the compound shown: `CC(C)(CCC(C)(C)c1ccccc1)c1ccccc1`
75.9 µM

Note TGI for the compound shown: Cc1ccc(NC(=O)CC(=O)N2N=C(c3ccccc3)C(N=Nc3ccc(S(=O)(=O)CCOS(=O)(=O)O)cc3)C2=O)cc1 (stereo unspecified)
> 100 µM
